target: TRAP1 enzyme (Homo sapiens, UniProt Q12931); experiment: Malachite green phosphate assay of TRAP1 ATPase activity; assay type: biochemical; settings: read-out: Malachite Green Fluor DRC: Mean Emax
Sequence (Q12931 60-704): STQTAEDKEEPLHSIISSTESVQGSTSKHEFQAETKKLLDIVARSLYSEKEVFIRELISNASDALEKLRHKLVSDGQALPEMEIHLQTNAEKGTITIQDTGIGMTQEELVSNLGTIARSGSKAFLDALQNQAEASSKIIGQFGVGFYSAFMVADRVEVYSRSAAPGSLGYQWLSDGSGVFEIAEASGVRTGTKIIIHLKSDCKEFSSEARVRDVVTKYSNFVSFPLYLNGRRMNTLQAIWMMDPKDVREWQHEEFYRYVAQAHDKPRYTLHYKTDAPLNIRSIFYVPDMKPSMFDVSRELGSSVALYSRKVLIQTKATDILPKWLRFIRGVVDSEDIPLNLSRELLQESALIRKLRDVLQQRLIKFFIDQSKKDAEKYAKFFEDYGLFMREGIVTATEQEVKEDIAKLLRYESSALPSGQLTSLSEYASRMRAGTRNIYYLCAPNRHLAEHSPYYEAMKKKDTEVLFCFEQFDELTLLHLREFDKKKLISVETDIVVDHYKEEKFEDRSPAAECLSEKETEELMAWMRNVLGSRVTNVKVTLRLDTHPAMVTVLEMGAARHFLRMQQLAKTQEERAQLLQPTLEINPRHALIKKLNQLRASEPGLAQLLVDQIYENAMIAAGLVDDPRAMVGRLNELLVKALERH
endpoint-name: Emax

Known results for compounds:
O=C(Nc1ccc(F)c(S(=O)(=O)Nc2ccc(Br)cc2)c1)c1cnc(-c2ccccc2)[nH]1 [Compound 168] : 200 to 300%
O=C(Nc1ccc(OCCCCCCO)c(S(=O)(=O)Nc2ccc(Br)cc2)c1)c1cnc[nH]1 [Compound 274] : 200 to 300%
O=C(Nc1cccc(S(=O)(=O)N2CCOc3cc(Cl)ccc32)c1)c1ncc(-c2ccccc2)o1 [Compound 477] : 160 to 199%
C=C(C)c1nc(C(=O)Nc2ccc(OC)c(S(=O)(=O)Nc3ccc(Cl)cc3)c2)oc1-c1ccccc1 [Compound 545] : 123 to 159%
O=C(Nc1cccc(S(=O)(=O)N2CCOc3ccccc32)c1)c1ncco1 [Compound 372] : 160 to 199%
COc1ccc(NC(=O)c2cnc(-c3ccccc3)o2)cc1S(=O)(=O)Nc1c(Cl)cccc1Cl [Compound 662] : 160 to 199%
CCCN(c1ccc(Br)cc1)S(=O)(=O)c1cccc(NC(=O)c2ncco2)c1 [Compound 303] : 160 to 199%
COc1ccc(NC(=O)c2cn(C)c(C(F)(F)F)n2)cc1S(=O)(=O)Nc1ccc(Br)cc1 [Compound 364] : 160 to 199%

q: Recorded Emax of COc1ccc(NC(=O)c2cnc(-c3ccccc3)[nH]2)cc1S(=O)(=O)N(CCOCCOCCN)c1ccc(Br)cc1 [Compound 637] , please.
a: > 300%

q: What do you get for CCc1ccc(NC(=O)c2ncn(C)n2)cc1S(=O)(=O)Nc1ccc(Cl)cc1 [Compound 575] ?
a: 160 to 199%

q: Try COc1ccc(NC(=O)c2cnc(-c3ccccc3)[nH]2)cc1S(=O)(=O)N(CCCCCC[P+](c1ccccc1)(c1ccccc1)c1ccccc1)c1ccc(Br)cc1 [Compound 242] next.
a: 200 to 300%

----------
Catalogue of Emax readings, one per entry.
target: TRAP1 enzyme (Homo sapiens, UniProt Q12931); experiment: Malachite green phosphate assay of TRAP1 ATPase activity; assay type: biochemical; settings: read-out: Malachite Green Fluor DRC: Mean Emax

// below: answered compounds
COc1ccc(NC(=O)c2nnc(-c3ccccc3)o2)cc1S(=O)(=O)Nc1ccc(Cl)cc1 : 123 to 159%
Cc1ncoc1C(=O)Nc1cccc(S(=O)(=O)N2CCC(C)(C)c3cc(Cl)ccc32)c1 : 160 to 199%
COc1ccc(NC(=O)c2cc3sccc3s2)cc1S(=O)(=O)Nc1c(C)cccc1C : 160 to 199%

q: So what's the measured Emax for this one? Cc1ccc2c(c1)CCN2S(=O)(=O)c1cccc(NC(=O)c2ocnc2C)c1
a: 200 to 300%

q: Proceed to Cc1cccc(C)c1NS(=O)(=O)c1cc(NC(=O)c2cnc(-c3ccccc3)[nH]2)ccc1F
a: 160 to 199%

q: # repeat for COc1ccc(NC(=O)c2ccc3cnccc3n2)cc1S(=O)(=O)Nc1c(C)cccc1C
a: 160 to 199%

q: Param item: COc1ccc(NC(=O)c2ncco2)cc1S(=O)(=O)Nc1ccc(Br)cc1
a: 160 to 199%

q: Please give the result for COc1ccc(NC(=O)c2oc(-c3ccccc3)nc2C)cc1S(=O)(=O)Nc1ccc(Cl)cc1 too.
a: 200 to 300%
